Collected pEC50 values appear next to each entry.
Tested on: Human immunodeficiency virus 1
Assay: Antiviral activity against HIV1 3B assessed as inhibition of viral replication by CCR5/CXCR4-tropic MAGI assay in presence of 10% serum
Format: functional, organism-based
Conditions: Human immunodeficiency virus 1, 3B
pEC50: −log10 of the molar value.

O=C(O)c1cccc(Cn2ccc3ccc(-c4ccc5cc(Cl)ccc5n4)cc32)c1	< 4.00
O=C(O)c1cccc(Cn2ccc3ccc(-c4cccc(O)c4)cc32)c1	< 4.00
COc1cc(Cc2ccc3cc[nH]c3c2)cc(C(=O)O)c1	< 4.00

Exercise: I am curious: what pEC50 value has been reported for "COc1cccc(-n2ccc3ccc(Cc4cccc(C(=O)O)c4)cc32)c1" ?
Key: 4.21

Exercise: I am curious: what pEC50 value has been reported for "O=C(O)c1cc(O)cc(Cc2ccc3cc[nH]c3c2)c1" ?
Key: < 4.00

Exercise: I am curious: what pEC50 value has been reported for "O=C(O)c1cccc(Cc2ccc3ccn(Cn4ccc5ccc(Cc6cccc(C(=O)O)c6)cc54)c3c2)c1" ?
Key: < 4.00

====

Assay: Binding affinity to HIV1 HXB2 gp41 by fluorescence assay
Design: species or system Human immunodeficiency virus 1
Collected pKi values appear next to each entry.
Formally, pKi is defined as -log10 of the concentration c, with c in mol/L.

In the examples that follow, each entry is paired with its recorded pKi.
O=C(O)c1cccc(Cn2ccc3ccc(-c4ccc5ccn(Cc6ccc(F)cc6)c5c4)cc32)c1	5.96
O=C(O)c1cccc(Cc2ccc3ccn(-c4cccc(C(=O)O)c4)c3c2)c1	4.35

Please find the next compound below.
Exercise: I am curious: what pKi value has been reported for "O=C(O)c1cccc(Cc2ccc3c(ccn3Cc3cccc(C(=O)O)c3)c2)c1" ?
Key: 4.46

====

Test: Cytotoxicity against human MAGI-CCR5 cells assessed as cell viability by MTS assay in presence of 2% serum
Assay type: cell-based
Collected CC50 values appear next to each entry.
Kindly provide the numeric value in µM only, without the unit symbol.

Exercise: I am curious: what CC50 value has been reported for "COc1ccc(Cn2ccc3ccc(-c4ccc5ccn(Cc6cccc(C(=O)O)c6)c5c4)cc32)cc1" ?
Key: 50.1

Exercise: I am curious: what CC50 value has been reported for "COc1ccc(COc2cccc(-c3ccc4ccn(Cc5cccc(C(=O)OCc6cccc(C(=O)O)c6)c5)c4c3)c2)cc1" ?
Key: 58.9

Exercise: I am curious: what CC50 value has been reported for "O=C(O)c1cccc(Cn2ccc3cc(-c4ccc5cc(Cl)ccc5n4)ccc32)c1" ?
Key: 50.1

Exercise: I am curious: what CC50 value has been reported for "COc1cccc(-c2ccc3ccn(Cc4cccc(C(=O)O)c4)c3c2)c1" ?
Key: 67.5

====

Test system: Human immunodeficiency virus 1
Assay: Antiviral activity against HIV1 3B assessed as inhibition of viral replication by CCR5/CXCR4-tropic MAGI assay in presence of 10% serum
Assay type: functional, organism-based
Conditions: Human immunodeficiency virus 1, 3B
Collected EC50 values appear next to each entry.

In the examples that follow, each entry is paired with its recorded EC50.
O=C(O)c1ccc(O)c(Cc2ccc3cc[nH]c3c2)c1	> 100 µM
O=C(O)c1cccc(COc2cccc(-c3ccc4ccn(Cc5cccc(C(=O)O)c5)c4c3)c2)c1	> 100 µM
O=C(O)c1cccc(Cn2ccc3ccc(-c4ccc5ccn(Cc6ccc(F)cc6)c5c4)cc32)c1	5.2 µM

Please find the next compound below.
Exercise: I am curious: what EC50 value has been reported for "O=C(O)c1ccc([N+](=O)[O-])c(Cc2ccc3cc[nH]c3c2)c1" ?
Key: > 100 µM
